ASSAYED_TARGET: human Y2 receptor (human) (UniProt P49146)
Sequence (P49146 whole entry): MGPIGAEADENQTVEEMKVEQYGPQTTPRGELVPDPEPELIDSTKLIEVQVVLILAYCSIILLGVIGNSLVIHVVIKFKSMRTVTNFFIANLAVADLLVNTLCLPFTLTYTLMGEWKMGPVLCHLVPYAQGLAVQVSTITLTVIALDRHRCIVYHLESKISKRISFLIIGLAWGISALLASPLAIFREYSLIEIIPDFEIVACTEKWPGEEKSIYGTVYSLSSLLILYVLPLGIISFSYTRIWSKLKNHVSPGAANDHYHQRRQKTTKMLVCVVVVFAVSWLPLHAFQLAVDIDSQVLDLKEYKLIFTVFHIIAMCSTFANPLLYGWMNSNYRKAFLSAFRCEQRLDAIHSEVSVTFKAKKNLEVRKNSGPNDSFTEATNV
PROTOCOL_TEXT: cell-based or functional assay
Non-standard residues stand in square brackets, D forms with d. *: point of attachment. Cyclohexanecarbonyl = O=C(C1CCCCC1)*; Ala(cPr) = N[C@@H](CC1CC1)C(=O)O; Cha = N[C@@H](CC1CCCCC1)C(=O)O; αMeP = C[C@@]1(C(=O)O)CCCN1; Isobutyryl = CC(C)C(=O)*; Nle = CCCC[C@H](N)C(=O)O; Abu = CC[C@H](N)C(=O)O; Aib = CC(C)(N)C(=O)O
Parameter GBA EC50 Ratio (vs PYY(3-36)), [35S]GTPγS: see the listing below.
MEASURED_QUANTITY: GBA EC50 Ratio (vs PYY(3-36)), [35S]GTPγS

- BINDER: "Isobutyryl-R[Abu][Cha][Cha]N[Ala(cPr)][Aib]TRQR[Cha]-NH2 (SMILES CC[C@H](NC(=O)[C@H](CCCNC(=N)N)NC(=O)C(C)C)C(=O)N[C@@H](CC1CCCCC1)C(=O)N[C@@H](CC1CCCCC1)C(=O)N[C@@H](CC(N)=O)C(=O)N[C@@H](CC1CC1)C(=O)NC(C)(C)C(=O)N[C@H](C(=O)N[C@@H](CCCNC(=N)N)C(=O)N[C@@H](CCC(N)=O)C(=O)N[C@@H](CCCNC(=N)N)C(=O)N[C@@H](CC1CCCCC1)C(N)=O)[C@@H](C)O) [Isobutanoyl-[Abu26, Cha27,28,36, Ala(cPr)30, Aib31]-PYY(25-36)]"
  ASSAY_RESULT: 12
- BINDER: "Isobutyryl-R[Abu][Cha]QNL[Aib]TRQR[Cha]-NH2 (SMILES CC[C@H](NC(=O)[C@H](CCCNC(=N)N)NC(=O)C(C)C)C(=O)N[C@@H](CC1CCCCC1)C(=O)N[C@@H](CCC(N)=O)C(=O)N[C@@H](CC(N)=O)C(=O)N[C@@H](CC(C)C)C(=O)NC(C)(C)C(=O)N[C@H](C(=O)N[C@@H](CCCNC(=N)N)C(=O)N[C@@H](CCC(N)=O)C(=O)N[C@@H](CCCNC(=N)N)C(=O)N[C@@H](CC1CCCCC1)C(N)=O)[C@@H](C)O) [Isobutanoyl-[Abu26, Cha27,36, Gln28, Aib31]-PYY(25-36)]"
  ASSAY_RESULT: 30
- BINDER: "Cyclohexanecarbonyl-R[Nle][Cha][Cha]NL[Aib]TRQR[Cha]-NH2 (SMILES CCCC[C@H](NC(=O)[C@H](CCCNC(=N)N)NC(=O)C1CCCCC1)C(=O)N[C@@H](CC1CCCCC1)C(=O)N[C@@H](CC1CCCCC1)C(=O)N[C@@H](CC(N)=O)C(=O)N[C@@H](CC(C)C)C(=O)NC(C)(C)C(=O)N[C@H](C(=O)N[C@@H](CCCNC(=N)N)C(=O)N[C@@H](CCC(N)=O)C(=O)N[C@@H](CCCNC(=N)N)C(=O)N[C@@H](CC1CCCCC1)C(N)=O)[C@@H](C)O) [Cyclohexanecarbonyl-[Nle26, Cha27,28,36, Aib31]-PYY(25-36)]"
  ASSAY_RESULT: 33
- BINDER: "Ac-S[αMeP]RH[Cha][Cha]NL[Aib]TRQR[Cha]-NH2 (SMILES CC(=O)N[C@@H](CO)C(=O)N1CCC[C@@]1(C)C(=O)N[C@@H](CCCNC(=N)N)C(=O)N[C@@H](Cc1c[nH]cn1)C(=O)N[C@@H](CC1CCCCC1)C(=O)N[C@@H](CC1CCCCC1)C(=O)N[C@@H](CC(N)=O)C(=O)N[C@@H](CC(C)C)C(=O)NC(C)(C)C(=O)N[C@H](C(=O)N[C@@H](CCCNC(=N)N)C(=O)N[C@@H](CCC(N)=O)C(=O)N[C@@H](CCCNC(=N)N)C(=O)N[C@@H](CC1CCCCC1)C(N)=O)[C@@H](C)O) [Ac-[αMePro24, Cha27,28,36, Aib31]-PYY(23-36)]"
  ASSAY_RESULT: 1.3
